# Cmax/D listing for each entry below
assay: Pharmacokinetic studies in Beagle dogs after oral administration of SNAC-based tablets; format: in vivo; details: dog, in vivo, po
Starred links: 1 amine or outer side, 2 acyl side, 3 side chain; linkers in the order of their positions; H or OH if unused. Non-standard residues stand in square brackets, D forms with d. Groups on a side chain read outwards from the residue. *: point of attachment. C20 diacid = O=C(O)CCCCCCCCCCCCCCCCCCC(=O)*; C18 diacid = O=C(O)CCCCCCCCCCCCCCCCC(=O)*; C16 diacid = O=C(O)CCCCCCCCCCCCCCC(=O)*; γGlu = O=C(O)[C@H](CCC(=O)[*:2])N[*:1]; εLys = N[C@@H](CCCCN[*:1])C(=O)[*:2]; Trx = NC[C@H]1CC[C@H](C(=O)O)CC1; AEEA = NCCOCCOCC(=O)O; Aib = CC(C)(N)C(=O)O; Ahx = NCCCCCC(=O)O
Write the value in kg/L as a bare number.

| Substance | Unit Text | Cmax/D |
| --- | --- | --- |
| H-H[Aib]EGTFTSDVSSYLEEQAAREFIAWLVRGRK([εLys-AEEA-AEEA-γGlu-C20 diacid])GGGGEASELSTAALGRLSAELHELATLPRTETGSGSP-NH2 [Compound 0552] | kg/L | 0.22 |
| H-H[Aib]EGTFTSDVSK([AEEA-AEEA-γGlu-C16 diacid])YLEEQAAREFIAWLVRGRK([AEEA-AEEA-γGlu-C16 diacid])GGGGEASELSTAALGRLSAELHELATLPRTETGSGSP-NH2 [Compound 0528] | kg/L | 0.5 |
| H-H[Aib]EGTFTSDVSSYLEEQAAK([εLys-AEEA-AEEA-γGlu-Trx-C20 diacid])EFIEWLVRGRGEASELSTAALGRLSAELHELATLPRTETGSGSP-NH2 [Compound 0436] | kg/L | 0.3 |

-- ask For the substance H-H[Aib]EGTFTSDVSSYLEGQAAKEFIAWLVRGRK([εLys-AEEA-AEEA-γGlu-C18 diacid])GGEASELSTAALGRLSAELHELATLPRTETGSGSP-NH2 [Compound 0045] , give its measured Cmax/D value.
-- reply 0.27

-- ask For the substance H-H[Aib]EGTFTSDVSK([AEEA-AEEA-γGlu-C16 diacid])YLEEQAARK([AEEA-AEEA-γGlu-C16 diacid])FIAWLVRGRQEGGGGGASELSTAALGRLSAELHELATLPRTETGSGSP-NH2 [Compound 0575] , give its measured Cmax/D value.
-- reply 0.34

-- ask For the substance H-H[Aib]EGTFTSDVSK([AEEA-AEEA-γGlu-C18 diacid])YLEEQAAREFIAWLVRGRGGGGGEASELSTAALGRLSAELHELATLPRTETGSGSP-NH2 [Compound 0640] , give its measured Cmax/D value.
-- reply 0.37

-- ask For the substance H-H[Aib]EGTFTSDVSK([AEEA-AEEA-γGlu-C16 diacid])YLEEQAARK([AEEA-AEEA-γGlu-C16 diacid])FIAWLVRGRQEASELSTAALGRLSAELHELATLPRTETGSGSP-NH2 [Compound 0578] , give its measured Cmax/D value.
-- reply 0.39

-- ask For the substance H-H[Aib]EGTFTSDVSK([AEEA-AEEA-γGlu-C16 diacid])YLEEQAARK([AEEA-AEEA-γGlu-C16 diacid])FIEWLVRGRGEASELSTAALGRLSAELHELATLPRTETGSGSP-NH2 [Compound 0577] , give its measured Cmax/D value.
-- reply 0.45

-- ask For the substance H-H[Aib]EGTFTSDVSSYLEGQAAREFIAWLVRGRGQEPK([AEEA-AEEA-γGlu-Trx-C20 diacid])GQAPEASELSTAALGRLSAELHELATLPRTETGSGSP-NH2 [Compound 0539] , give its measured Cmax/D value.
-- reply 0.22

-- ask For the substance H-H[Aib]EGTFTSDVSRYLEEQAAREFIEWLVRGRK([AEEA-AEEA-γGlu-Trx-C20 diacid])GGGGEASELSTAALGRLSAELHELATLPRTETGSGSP-NH2 [Compound 0511] , give its measured Cmax/D value.
-- reply 0.14

-- ask For the substance H-H[Aib]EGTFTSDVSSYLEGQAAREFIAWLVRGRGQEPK([AEEA-AEEA-γGlu-C20 diacid])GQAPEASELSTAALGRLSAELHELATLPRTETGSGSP-NH2 [Compound 0529] , give its measured Cmax/D value.
-- reply 0.3

-- ask For the substance H-H[Aib]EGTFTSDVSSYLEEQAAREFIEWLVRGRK([AEEA-AEEA-γGlu-Trx-C20 diacid])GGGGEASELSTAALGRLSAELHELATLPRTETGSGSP-NH2 [Compound 0503] , give its measured Cmax/D value.
-- reply 0.14

-- ask For the substance H-H[Aib]EGTFTSDVSK([AEEA-AEEA-γGlu-C16 diacid])YLEEQAARK([AEEA-AEEA-γGlu-C16 diacid])FIEWLVRGRGEGGGGGASELSTAALGRLSAELHELATLPRTETGSGSP-NH2 [Compound 0576] , give its measured Cmax/D value.
-- reply 0.34

-- ask For the substance H-H[Aib]EGTFTSDVSK([Ahx-γGlu-γGlu-C16 diacid])YLEEQAARK([Ahx-γGlu-γGlu-C16 diacid])FIEWLVRGAAEASELSTAALGRLSAELHELATLPRTETGSGSP-NH2 [Compound 0630] , give its measured Cmax/D value.
-- reply 0.53

-- ask For the substance H-H[Aib]EGTFTSDVSSYLEEQAARK([εLys-AEEA-AEEA-γGlu-Trx-C20 diacid])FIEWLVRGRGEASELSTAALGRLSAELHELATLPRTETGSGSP-NH2 [Compound 0439] , give its measured Cmax/D value.
-- reply 0.21

-- ask For the substance H-H[Aib]EGTFTSDK([AEEA-AEEA-γGlu-C16 diacid])SSYLEEQAAREFIAWLVRGRGGGGGASELSTAALGRLSK([AEEA-AEEA-γGlu-C16 diacid])ELHELATLPRTETGSGSP-NH2 [Compound 0292] , give its measured Cmax/D value.
-- reply 0.72

###

# EC50 listing for each entry below
molecular target: human GLP-1 receptor (Homo sapiens, UniProt P43220); construct: expressed in transfected cells; host or cells: BHK (Baby Hamster Kidney) cells, clone BHK 467-12A KZ-10, stably transfected, with CRE-luciferase reporter; assay: Human GLP-1 receptor in vitro potency assay (CRE-luciferase reporter, BHK cells); type: cell-based; conditions: Table 4a; BHK cells expressing human GLP-1R, CRE-Luc, 3 hours; read-out: Human GLP-1R potency [EC50 (pM)]
Sequence (P43220 24-463): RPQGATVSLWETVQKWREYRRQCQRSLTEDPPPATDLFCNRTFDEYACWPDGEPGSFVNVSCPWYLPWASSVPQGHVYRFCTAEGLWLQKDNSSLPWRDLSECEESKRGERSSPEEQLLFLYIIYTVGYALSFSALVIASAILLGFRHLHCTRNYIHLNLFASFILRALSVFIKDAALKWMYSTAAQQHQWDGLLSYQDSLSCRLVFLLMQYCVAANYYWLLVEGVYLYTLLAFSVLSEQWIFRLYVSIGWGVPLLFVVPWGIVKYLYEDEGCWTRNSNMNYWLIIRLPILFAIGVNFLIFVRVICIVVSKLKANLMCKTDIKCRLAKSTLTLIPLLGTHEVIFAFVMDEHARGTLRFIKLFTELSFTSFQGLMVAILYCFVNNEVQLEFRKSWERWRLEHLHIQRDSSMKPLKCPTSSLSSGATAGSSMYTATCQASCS
Starred links: 1 amine or outer side, 2 acyl side, 3 side chain; linkers in the order of their positions; H or OH if unused. Non-standard residues stand in square brackets, D forms with d. Groups on a side chain read outwards from the residue. *: point of attachment. Butyryl(4-SO2NHCO(CH2)16Tz) = O=C(CCCCCCCCCCCCCCCCc1nnn[nH]1)NS(=O)(=O)CCCC(=O)*; C20 diacid = O=C(O)CCCCCCCCCCCCCCCCCCC(=O)*; C18 diacid = O=C(O)CCCCCCCCCCCCCCCCC(=O)*; C16 diacid = O=C(O)CCCCCCCCCCCCCCC(=O)*; γGlu = O=C(O)[C@H](CCC(=O)[*:2])N[*:1]; AEEA = NCCOCCOCC(=O)O; Aib = CC(C)(N)C(=O)O
Write your answer as a measured quantity: the number, then the unit.

Example results:
| Substance | Observed Measurement |
| --- | --- |
| H-HGEGTFTSDVSSYLEEQAARK([AEEA-AEEA-γGlu-C18 diacid])FIEWLVRGK([AEEA-AEEA-γGlu-C18 diacid])GEGGEASELSTAALGRLSAELHELATLPRTETGSGSP-NH2 [Compound 0090] | 32.6 pM |
| H[Aib]EGTFTSDVSSYLEEQAARK([γGlu-C18 diacid])FIAWLVRGRK([γGlu-C18 diacid])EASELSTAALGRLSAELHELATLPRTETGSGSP-NH2 [Compound 0131] | 16.1 pM |

-- ask Report EC50 from human GLP-1 receptor (Homo sapiens, UniProt P43220) testing of HAEGTFTSDVSSYLEEK([AEEA-AEEA-γGlu-C18 diacid])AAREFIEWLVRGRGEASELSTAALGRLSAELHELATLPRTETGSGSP-NH2 [Compound 0472]
-- reply 2.8 pM

-- ask Report EC50 from human GLP-1 receptor (Homo sapiens, UniProt P43220) testing of H-H[Aib]EGTFTSDVSSYLEEK([AEEA-AEEA-γGlu-C16 diacid])AAREFIAWLVRGRGGGGGEASELSTAALGRLSAELHELK([AEEA-AEEA-γGlu-C16 diacid])TLPRTETGSGSP-NH2 [Compound 0396]
-- reply 4.8 pM

-- ask Report EC50 from human GLP-1 receptor (Homo sapiens, UniProt P43220) testing of H-H[Aib]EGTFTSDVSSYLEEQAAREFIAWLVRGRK(Butyryl(4-SO2NHCO(CH2)16Tz))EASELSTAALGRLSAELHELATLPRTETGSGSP-NH2 [Compound 0103]
-- reply 28.1 pM

-- ask Report EC50 from human GLP-1 receptor (Homo sapiens, UniProt P43220) testing of H-H[Aib]EGTFTSDVSSYLEGQAAK([AEEA-AEEA-γGlu-C20 diacid])EFIAWLVRGRGQEPGQAPEASELSTAALGRLSAELHELATLPRTETGSGSP-NH2 [Compound 0202]
-- reply 10.5 pM
